target: human Izumo1_(22-254), wild type (human, UniProt Q8IYV9-1 22-254); assay: BLI
Sequence (Q8IYV9 22-254): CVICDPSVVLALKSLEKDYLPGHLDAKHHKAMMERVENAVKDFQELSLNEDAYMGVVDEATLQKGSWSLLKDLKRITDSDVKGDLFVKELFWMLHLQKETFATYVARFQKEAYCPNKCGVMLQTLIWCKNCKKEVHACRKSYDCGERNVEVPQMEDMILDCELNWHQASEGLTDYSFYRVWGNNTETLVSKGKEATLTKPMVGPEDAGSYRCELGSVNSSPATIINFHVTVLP
Property: koff
A bare number is not enough; add the unit after it.

INSERT INTO results (binder, observed) VALUES
  ('L81A Juno_(20-228) (domain or fragment, human, UniProt A6ND01-1 20-228, looked up, biotinylated with the EZ link sulfo-NHS-LC-biotinylation kit (BLI)) GDELLNICMNAKHHKRVPSPEDKLYEECIPWKDNACCTLTTSWEAHLDVSPLYNFSLFHCGALMPGCRKHFIQAICFYECSPNLGPWIQPVGSLGWEVAPSGQGERVVNVPLCQEDCEEWWEDCRMSYTCKSNWRGGWDWSQGKNRCPKGAQCLPFSHYFPTPADLCEKTWSNSFKASPERRNSGRCLQKWFEPAQGNPNVAVARLFAS', '0.349 s⁻¹'),
  ('K163A Juno_(20-228) (domain or fragment, human, UniProt A6ND01-1 20-228, looked up, biotinylated with the EZ link sulfo-NHS-LC-biotinylation kit (BLI)) GDELLNICMNAKHHKRVPSPEDKLYEECIPWKDNACCTLTTSWEAHLDVSPLYNFSLFHCGLLMPGCRKHFIQAICFYECSPNLGPWIQPVGSLGWEVAPSGQGERVVNVPLCQEDCEEWWEDCRMSYTCKSNWRGGWDWSQGANRCPKGAQCLPFSHYFPTPADLCEKTWSNSFKASPERRNSGRCLQKWFEPAQGNPNVAVARLFAS', '0.0133 s⁻¹'),
  ('E45K Juno_(20-228) (domain or fragment, human, UniProt A6ND01-1 20-228, looked up, biotinylated with the EZ link sulfo-NHS-LC-biotinylation kit (in the BLI assay only)) GDELLNICMNAKHHKRVPSPEDKLYKECIPWKDNACCTLTTSWEAHLDVSPLYNFSLFHCGLLMPGCRKHFIQAICFYECSPNLGPWIQPVGSLGWEVAPSGQGERVVNVPLCQEDCEEWWEDCRMSYTCKSNWRGGWDWSQGKNRCPKGAQCLPFSHYFPTPADLCEKTWSNSFKASPERRNSGRCLQKWFEPAQGNPNVAVARLFAS', '0.0624 s⁻¹');

Turning to the following binder.
Returns the measured koff for the input binder. Input: K163E Juno_(20-228) (domain or fragment, human, UniProt A6ND01-1 20-228, looked up, biotinylated with the EZ link sulfo-NHS-LC-biotinylation kit (in the BLI assay only)) GDELLNICMNAKHHKRVPSPEDKLYEECIPWKDNACCTLTTSWEAHLDVSPLYNFSLFHCGLLMPGCRKHFIQAICFYECSPNLGPWIQPVGSLGWEVAPSGQGERVVNVPLCQEDCEEWWEDCRMSYTCKSNWRGGWDWSQGENRCPKGAQCLPFSHYFPTPADLCEKTWSNSFKASPERRNSGRCLQKWFEPAQGNPNVAVARLFAS
0.0242 s⁻¹
